# SYSTEM: hTREM2 (Homo sapiens)
# Sequence (Q9NZC2 19-230): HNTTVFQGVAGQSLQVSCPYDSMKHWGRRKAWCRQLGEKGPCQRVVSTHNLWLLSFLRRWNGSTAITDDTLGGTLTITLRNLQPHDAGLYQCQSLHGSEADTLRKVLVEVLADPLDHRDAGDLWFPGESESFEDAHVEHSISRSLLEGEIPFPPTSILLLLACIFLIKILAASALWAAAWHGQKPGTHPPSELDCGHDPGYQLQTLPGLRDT
# Sequence (O43914 22-113 partner): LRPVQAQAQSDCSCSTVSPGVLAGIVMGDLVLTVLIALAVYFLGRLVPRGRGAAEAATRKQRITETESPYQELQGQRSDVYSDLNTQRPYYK
# METHOD_DESCRIPTION: Phospho-Syk AlphaScreen/AlphaLISA assay in TREM2 and DAP12 overexpressing HEK293 cells (Example A1)
# Format: cell-based
# Set-up: expressed in transfected cells
# SETTINGS: HEK293 cells, read-out: hTREM2 EC50
pEC50: −log10 of the molar value.
QUANTITY_KIND: pEC50

Record excerpt, results attached:
In: pEC50 of Cc1nc2cc(N3CCO[C@H](c4cccc(OC(F)(F)F)c4)C3)nc(-c3ccc(Cl)cc3F)c2c(=O)n1C (single isomer, unassigned) [Example 97] on hTREM2 (Homo sapiens)?
Out: 5.52 to 6.30

In: pEC50 of COc1cc([C@@H]2C[C@H](c3cc4nc(C)n(C)c(=O)c4c(-c4ccc(Cl)cc4F)n3)CCO2)ccn1 (single isomer, unassigned) [Example 173] on hTREM2 (Homo sapiens)?
Out: 5.52 to 6.30

Next, consider the following molecule.
In: pEC50 of Cc1nc2cc(N3CCO[C@H](c4cnn(C)c4)C3)nc(-c3ccc(Cl)cc3F)c2c(=O)n1C [Example 189] on hTREM2 (Homo sapiens)?
Out: 6.30 to 7.30
